Where these numbers come from: paper PMC10022191

system: genotype D HBV; experiment: primary human hepatocyte (PHH) assay, extracellular HBV DNA by qPCR; conditions: read-out: EC50, inhibition of extracellular HBV DNA generation; PHH infected with genotype D HBV
TEST READOUT: EC50 (µM)
Give the value in µM but do not write µM after it.

Q: EC50 of O=C1CO[C@H](c2cn(-c3ccc(Br)cc3)nc2-c2ccc(F)cc2)N1CCc1ccc2[nH]c(=O)[nH]c2c1 [Canocapavir] on genotype D HBV?
A: 0.0123
